Assay text: Effect of food on plasma pharmacokinetics after single oral dose of SF2a/b (Example 2)
Assay type: in vivo, human
Assay conditions: both sexes, human, plasma, oral, 800 mg, 800 mg SF2b, fasted; read-out: AUClast, Geometric LS Means Treatment J

# Compound, AUC(0-t)
measured = [
    ("COc1cc(NC(C(=O)c2c[nH]c3ccc(OC(F)(F)F)cc23)c2ccc(Cl)cc2OC)cc(S(C)(=O)=O)c1 (stereo not shown) [Compound (a)]", "107 µg·h/mL"),
]

* * *

Assay text: Plasma pharmacokinetics with loading dose and weekly or twice weekly maintenance dosing, fed (Example 5)
Assay type: in vivo, human
Assay conditions: human, plasma, oral, 450 mg, Panel II (450 mg BID Days 1-2, then 450 mg Q3D/Q4D; SF2a/b, fed), Day 3; read-out: Mean AUC72 h (SD)
Reported metric: AUC(0-t) (µg·h/mL)

# Molecule, Output unit, Number
rows = [
    ("COc1cc(NC(C(=O)c2c[nH]c3ccc(OC(F)(F)F)cc23)c2ccc(Cl)cc2OC)cc(S(C)(=O)=O)c1 (stereo not shown)", "µg·h/mL", 263),
]

* * *

Assay text: Effect of food on plasma pharmacokinetics after single oral dose of SF2a/b (Example 2)
Type: in vivo, human
Assay conditions: both sexes, human, plasma, oral, 50 mg, Treatment I: single 50 mg (SF2a), fed, standardized breakfast; read-out: Cmax, Median
Procedure: The effect of food on the pharmacokinetics (PK) of Compound (a) was assessed in healthy participants after a single oral dose of SF2a/b, described in Example 1, administered at different dose levels in a randomized single dose, 2-period crossover study. […]

# Compound, Cmax
records = [
    ("COc1cc(NC(C(=O)c2c[nH]c3ccc(OC(F)(F)F)cc23)c2ccc(Cl)cc2OC)cc(S(C)(=O)=O)c1 (stereo not shown)", "267 ng/mL"),
]

* * *

Assay text: Effect of food on plasma pharmacokinetics after single oral dose of SF2a/b (Example 2)
Type: in vivo, human
Assay conditions: both sexes, human, plasma, oral, 800 mg, Treatment D: single 800 mg (SF2b), fasted; read-out: t1/2, term, Geo. Mean (converted)
Description: The effect of food on the pharmacokinetics (PK) of Compound (a) was assessed in healthy participants after a single oral dose of SF2a/b, described in Example 1, administered at different dose levels in a randomized single dose, 2-period crossover study. […]
Reported metric: half-life (h)

# Compound, Reported metric, Output unit, Number
measured = [
    ("COc1cc(NC(C(=O)c2c[nH]c3ccc(OC(F)(F)F)cc23)c2ccc(Cl)cc2OC)cc(S(C)(=O)=O)c1 (stereo not shown)", "half-life", "h", 180),
]

* * *

Assay text: Effect of food on plasma pharmacokinetics after single oral dose of SF2a/b (Example 2)
Assay type: in vivo, human
Assay conditions: both sexes, human, plasma, oral, 200 mg, Treatment F: single 200 mg (SF2b), fasted; read-out: tmax, Median

# Molecule, Tmax [h]
rows = [
    ("COc1cc(NC(C(=O)c2c[nH]c3ccc(OC(F)(F)F)cc23)c2ccc(Cl)cc2OC)cc(S(C)(=O)=O)c1 (stereo not shown)", 7.5),
]

* * *

Assay text: Effect of food on plasma pharmacokinetics after single oral dose of SF2a/b (Example 2)
Format: in vivo, human
Assay conditions: both sexes, human, plasma, oral, 50 mg, Treatment I: single 50 mg (SF2a), fed, standardized breakfast; read-out: AUC∞, Geo. Mean

# Molecule, AUC(0-inf) (ng·h/mL)
rows = [
    ("COc1cc(NC(C(=O)c2c[nH]c3ccc(OC(F)(F)F)cc23)c2ccc(Cl)cc2OC)cc(S(C)(=O)=O)c1 (stereo not shown)", 22100),
]
